MEASURED ON: Tubulin (Bos taurus, UniProt Q6B856+Q862F3)
Sequence (Q6B856 whole entry): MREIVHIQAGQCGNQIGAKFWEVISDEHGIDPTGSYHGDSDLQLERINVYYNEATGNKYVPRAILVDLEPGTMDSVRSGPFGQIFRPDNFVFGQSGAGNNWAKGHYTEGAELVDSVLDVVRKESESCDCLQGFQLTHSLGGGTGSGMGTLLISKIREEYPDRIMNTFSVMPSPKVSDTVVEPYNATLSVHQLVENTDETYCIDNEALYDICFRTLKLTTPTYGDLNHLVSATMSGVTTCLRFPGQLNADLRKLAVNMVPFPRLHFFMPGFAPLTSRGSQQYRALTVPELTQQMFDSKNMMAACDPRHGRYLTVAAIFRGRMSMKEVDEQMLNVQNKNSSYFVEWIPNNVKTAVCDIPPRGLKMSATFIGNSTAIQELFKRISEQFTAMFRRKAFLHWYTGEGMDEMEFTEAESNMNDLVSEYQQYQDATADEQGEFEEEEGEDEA
Sequence (Q862F3 whole entry): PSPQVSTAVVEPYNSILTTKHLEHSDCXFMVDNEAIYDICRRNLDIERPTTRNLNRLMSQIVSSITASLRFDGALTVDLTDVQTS
METHOD SUMMARY: Inhibition of polymerization of purified bovine tubulin
MEASURE: IC50 (µM)
# number only, unit µM dropped from output

Guide cases for IC50, answers given:
- COMPOUND: "CCOc1cc2c(cc1O)CCCC1C2CC[C@@]2(C)C1CC[C@@H]2O (stereo not given in full)"
  MEASURED ON: "Tubulin (Bos taurus, UniProt Q6B856+Q862F3)"
  NUMERIC VALUE: 0.97
- COMPOUND: "CCOc1cc2c(cc1O)CC[C@@H]1[C@@H]2CC[C@]2(C)[C@@H](O)CC[C@@H]12"
  MEASURED ON: "Tubulin (Bos taurus, UniProt Q6B856+Q862F3)"
  NUMERIC VALUE: 0.66
- COMPOUND: "CCOc1cc2c(cc1O)CC(=O)CC1C2CC[C@@]2(C)C1CC[C@@H]2O (stereo not given in full)"
  MEASURED ON: "Tubulin (Bos taurus, UniProt Q6B856+Q862F3)"
  NUMERIC VALUE: 8.1
- COMPOUND: "CCOc1cc2c(cc1O)C(=O)CCC1C2CC[C@@]2(C)C1CC[C@@H]2O (stereo not given in full)"
  MEASURED ON: "Tubulin (Bos taurus, UniProt Q6B856+Q862F3)"
  NUMERIC VALUE: 130

# query: IC50 of entry CCOc1cc2c(cc1O)C/C(=N\NS(=O)(=O)c1ccc(C)cc1)CC1C2CC[C@@]2(C)C1CC[C@@H]2O (stereo not given in full) 80

====

# pEC50 per entry
MEASURED ON: Tubulin (Bos taurus, UniProt Q6B856+Q862F3)
METHOD SUMMARY: Effective concentration for enhancement of tubulin assembly rate was determined
In plain terms, pEC50 is the concentration in mol/L turned into minus its base-10 logarithm.

- MOLECULE: "CC(=O)O[C@H]1C(=O)[C@@]2(C)[C@H]([C@H](OC(=O)c3ccccc3)[C@]3(O)C[C@H](OC(=O)[C@H](O)[C@@H](NC(=O)c4ccccc4)c4ccccc4)C(C)=C1C3(C)C)[C@]1(OC(C)=O)CO[C@@H]1C[C@@H]2O"
  MEASURED ON: "Tubulin (Bos taurus, UniProt Q6B856+Q862F3)"
  NUMERIC VALUE: 6.08
- MOLECULE: "CCOc1cc2c(cc1OC(C)=O)C(=O)CCC1C2CC[C@@]2(C)C1CC[C@@H]2O (some centres not stated)"
  MEASURED ON: "Tubulin (Bos taurus, UniProt Q6B856+Q862F3)"
  NUMERIC VALUE: 3.44

Next, consider the following molecule.
# query: pEC50 of entry CCOc1cc2c(cc1O)C(=O)CCC1C2CC[C@@]2(C)C1CC[C@@H]2OC(C)=O (some centres not stated) 5.09

====

# EC50 per entry
MEASURED ON: Tubulin (Bos taurus, UniProt Q6B856+Q862F3)
METHOD SUMMARY: Effective concentration for enhancement of tubulin assembly rate was determined

- MOLECULE: "CCOc1cc2c(cc1OC(C)=O)C(=O)C[C@@H]1[C@@H]2CC[C@]2(C)[C@@H](OC(C)=O)CC[C@@H]12"
  EC50: "> 400 µM"

# query: EC50 of entry CCOc1cc2c(cc1OC(C)=O)/C(=N/OC)CCC1C2CC[C@@]2(C)C1CC[C@@H]2OC(C)=O (some centres undefined) > 200 µM

# query: EC50 of entry CCOc1cc2c(cc1OC(C)=O)CC(=O)CC1C2CC[C@@]2(C)C1CC[C@@H]2OC(C)=O (some centres undefined) > 400 µM

# query: EC50 of entry CCOc1cc2c(cc1O)[C@H](NC(C)=O)CC[C@H]1C3CC[C@H](O)[C@@]3(C)CC[C@H]21 (some centres undefined) > 200 µM
